- Test system: A549/ATCC NSCLC
- TEST NAME: NCI-60 one-dose screen, 48 h
- ASSAY CONTEXT: 10 µM unless noted
- Protocol: Growth inhibition of the A549/ATCC human Non-Small Cell Lung tumor cell line is measured as a screen for anti-cancer activity. Cells are grown in 96 well plates and exposed to the test compound for 48 hours. Compounds are tested at a single concentration, which is 10^-5 M for most compounds. The reported endpoint is percent growth (GI% or GIPRCNT), where numbers from 0 - 100% represent growth inhibition, and numbers from -100% - 0 represent cell death. […]
This is part of a sample that, as a whole, favours compounds with a hit. Of some 83,000 tested, about 20% had one in any assay. The source made the active and inactive calls. Rule for the calls: active = growth percent below 10; inactive = the rest.
// classify into t for active, f for inactive

{"COMPOUND": "Cc1cc2c(cc1Cl)C(=O)/C(=C/c1ccccc1)O2", "CLASS LABEL": "t"}

Kindly provide the recorded test outcome for the following compound: `CCCSc1nc(NCCc2c[nH]c3ccccc23)c(C#N)c(-c2ccc(F)cc2)n1`
f

Kindly provide the recorded test outcome for the following compound: `CCN1CCN(Cc2ccc(C(=O)Nc3cccc(C#Cc4cccc5[nH]nc(N)c45)c3)cc2C(F)(F)F)CC1`
t

Kindly provide the recorded test outcome for the following compound: C=C1CC[C@@H]2[C@]3(C)COC(c4cn[nH]c4-c4ccccc4)O[C@@H]3CC[C@@]2(C)[C@@H]1C/C=C1/C(=O)OCC1O (stereo partly specified)
f

Kindly provide the recorded test outcome for the following compound: CC1=C(C(=O)c2ccccc2)C(c2cccc(Cl)c2Cl)n2c(nc3ccccc32)N1 (stereo unspecified)
f

Kindly provide the recorded test outcome for the following compound: `O=c1[nH]c2ccccc2cc1CSc1cccc(Nc2nccc(-c3ccc4ccccc4c3)n2)c1`
f

---

- Test system: SF-295 CNS
- TEST NAME: NCI-60 one-dose screen, 48 h (100 = growth as untreated, 0 = no growth, -100 = all killed)
- ASSAY CONTEXT: 10 µM unless noted
This is part of a sample that, as a whole, favours compounds with a hit. Of some 83,000 tested, about 20% had one in any assay.
Threshold 30%. growth below it: 1. growth at it or above: -1.

{"MOLECULE": "O=C(c1ccc(OCCN2CCOCC2)cc1)C1[C@H](c2ccc(Cl)cc2)[C@@H](c2ccccc2)NC12C(=O)Nc1ccc(Br)cc12 (some centres not stated)", "CLASS LABEL": 1}
{"MOLECULE": "O=C(CCN1C(=O)/C(=C/c2ccc(F)cc2)SC1=S)N1CCOCC1", "CLASS LABEL": -1}
{"MOLECULE": "O=C(NN1C(=O)/C(=C/C=C/c2ccc([N+](=O)[O-])o2)SC1=S)c1cccc(O)c1", "CLASS LABEL": 1}
{"MOLECULE": "Cc1ccc(-c2nc(C#N)c(S(=O)(=O)N3CCN(S(=O)(=O)c4ccc(Cl)cc4)CC3)o2)cc1", "CLASS LABEL": -1}
{"MOLECULE": "NS(=O)(=O)c1ccc(CCNC(=O)CSc2ccc(-c3ccc(Br)cc3)nn2)cc1", "CLASS LABEL": -1}
{"MOLECULE": "Cc1sc(C(NC(=O)OCCn2c([N+](=O)[O-])cnc2C)C(F)(F)Cl)nc1-c1ccc(OC(F)(F)F)cc1 (configuration not stated)", "CLASS LABEL": 1}

Strictly below 30%: is that where growth of COc1ccc(NC(=O)[C@@H](N)Cc2ccccc2)cc1C(=O)Nc1cccc(C2CC(=O)c3c(cc(OC)c(OC)c3OC)O2)c1 (some centres not stated) sits?
-1

Strictly below 30%: is that where growth of `NS(=O)(=O)c1ccc(-n2cc(-c3cccc(NC(=O)c4cc(C(F)(F)F)cc(C(F)(F)F)c4)c3)nn2)cc1` sits?
-1

Strictly below 30%: is that where growth of C=C1CC[C@@H]2[C@]3(C)COC(c4cn[nH]c4-c4ccc(Br)cc4)O[C@@H]3CC[C@@]2(C)[C@@H]1C/C=C1/C(=O)OCC1O (some centres not stated) sits?
1

Strictly below 30%: is that where growth of `CCN1CCN(Cc2ccc(C(=O)Nc3cccc(C#Cc4cccc5[nH]nc(N)c45)c3)cc2C(F)(F)F)CC1` sits?
1

Strictly below 30%: is that where growth of `COc1ccc(-c2nc3cc(C)ccc3n2CC(=O)N=Nc2c(O)[nH]c3ccc(Cl)cc23)cc1` sits?
1

Strictly below 30%: is that where growth of `C#CCOc1ccc(/C=N/Nc2nc(-c3cc4cc(OC)ccc4oc3=O)cs2)cc1OC` sits?
-1

Strictly below 30%: is that where growth of COc1cc2c(c(OC)c1OC)C(=O)CC(c1cccc(NC(=O)c3cc(NC(=O)[C@H](CO)NC(=O)OC(C)(C)C)ccc3Cl)c1)O2 (some centres not stated) sits?
-1

Strictly below 30%: is that where growth of `O=C(O)c1ccc(-c2ccc(/C=N/NC(=O)c3[nH]c4ccc(Br)cc4c3-c3ccccc3)s2)cc1` sits?
1

Strictly below 30%: is that where growth of `N#Cc1c(-c2cccc(Cl)c2Cl)cc(-c2c[nH]c3ccccc23)[nH]c1=O` sits?
-1

Strictly below 30%: is that where growth of `COc1ccc(NC(=O)Cn2c3c(sc2=O)[C@H]2[C@@H](O)[C@@H](O)[C@H](O)[C@@H]2CS3)cc1` sits?
-1

---

Listed here: items and their measured growth.
- Tested on: CAKI-1 renal
- TEST NAME: NCI-60 one-dose screen, 48 h (100 = growth as untreated, 0 = no growth, -100 = all killed)
- ASSAY CONTEXT: 10 µM unless noted
Compounds without any hit were thinned out: in the full panel of roughly 83,000, 20% have a hit.
The response must be a number in % with no trailing unit.

Completed entries (count: 6):
{"COMPOUND": "Brc1ccc(-c2n(Cc3ccc4ccccc4c3)c(-c3ccccc3)c(-c3ccccc3)[n+]2Cc2ccc3ccccc3c2)cc1", "growth [%]": -97}
{"COMPOUND": "COC(=O)/C=C/c1cccc2c1C(=O)NC(C)(c1cc3cc4ccccc4cc3oc1=O)N2 (stereo not drawn)", "growth [%]": 61.9}
{"COMPOUND": "C#CCOc1cc(N(CC)CC)ccc1C(C(=O)NC(C)(C)C)N(C(=O)C1CCc2cc(F)ccc2O1)c1cc(C)cc(C)c1 (stereo not drawn)", "growth [%]": 27.9}
{"COMPOUND": "COCOc1ccc2c(=O)c(C)c(C(=O)N[C@@H](Cc3ccccc3)C(O)C(=O)NCCc3ccc(OC)cc3)oc2c1 (stereo partly drawn)", "growth [%]": 101}
{"COMPOUND": "C#CCOc1cc(N(CC)CC)ccc1C(C(=O)NC(C)(C)C)N(C(=O)C1CCc2cc(F)ccc2O1)c1ccc(Br)cc1 (stereo not drawn)", "growth [%]": 58.7}
{"COMPOUND": "C=CC(=O)Nc1ccc(C)c(Oc2ccc(Cl)cc2)c1", "growth [%]": 61.7}

Here is the next item to consider.
Give the reported growth for this compound. `CCC(C)(C)c1ccc(OCCCCCCN2CCN(c3ccncc3)CC2)cc1`
17.5

---

- Test system: 786-0 renal
- TEST NAME: NCI-60 one-dose screen, 48 h
- ASSAY CONTEXT: 10 µM unless noted
The panel holds about 83,000 compounds, 20% with a hit somewhere; the sample as a whole holds those more often. The source made the active and inactive calls. The calls were made as follows: active = growth percent below 10; inactive = the rest.
// classify into class 1 for active, class 0 for inactive

Kindly provide the recorded test outcome for the following compound: `O=C(O)c1ccc(-c2ccc(/C=N/NC(=O)c3[nH]c4ccc(Br)cc4c3-c3ccccc3)s2)cc1`
class 0

---

- System: TK-10 renal
- TEST NAME: NCI-60 one-dose screen, 48 h
- ASSAY CONTEXT: 10 µM unless noted
Compounds without any hit were thinned out: in the full panel of roughly 83,000, 20% have a hit. Calls of active or inactive are those of the source. Rule for the calls: active = growth percent below 10; inactive = the rest.
// classify into true (1) = active, false (0) = inactive

The following compounds have reported results that may help.
{"COMPOUND": "COc1ccc(C(=O)/C=C/c2cccc3ccccc23)cc1S(N)(=O)=O", "CLASS LABEL": "false (0)"}
{"COMPOUND": "CC(=O)Nc1cccc(Nc2nccc(N[C@@H](C)c3ccccc3)n2)c1", "CLASS LABEL": "false (0)"}
{"COMPOUND": "Cc1cc(C)cc(C(=O)Nc2cccc(-c3cn(-c4ccc(S(N)(=O)=O)cc4)nn3)c2)c1", "CLASS LABEL": "true (1)"}
{"COMPOUND": "Cc1ccc([C@H]2C(C(=O)c3ccc(Cl)cc3)C3(N[C@@H]2c2ccccc2)C(=O)Nc2ccccc23)cc1 (stereo not given in full)", "CLASS LABEL": "false (0)"}

Kindly provide the recorded test outcome for the following compound: `CCC(C)(C)c1ccc(OCCCCCCN2CCN(c3ccncc3)CC2)cc1`
false (0)

Kindly provide the recorded test outcome for the following compound: `CN(C)CCCNC(=O)c1cc(NC(=O)c2cc(NC(=O)c3ccc(C#Cc4ccccc4)cc3)cn2C)cn1C`
false (0)

Kindly provide the recorded test outcome for the following compound: `O=c1cc(-c2ccccc2)oc2cc(OCCCC[P+](c3ccccc3)(c3ccccc3)c3ccccc3)cc(O)c12`
true (1)

These measurements were taken from PubChem BioAssay (NCI).
